test system: HS 578T breast; test: NCI-60 one-dose screen, 48 h; conditions: 10 µM unless noted
The panel holds about 83,000 compounds, 20% with a hit somewhere; the sample as a whole holds those more often. Active and inactive are the calls of the source. Rule for the calls: active = growth percent below 10; inactive = the rest.
Select the matching outcome among Yes for active, No for inactive

Examples from the recorded data:
Compound	Category Label
CCN(CC)CCCC(C)NCC(=O)NC(c1ccc2c(c1)OCO2)c1cc(Cl)c2cccnc2c1O (configuration not stated)	No
CCOC(=O)c1c(NCC(=O)Nc2cccc(Cl)c2)sc2c1CCCC2	No
C#C[C@]1(O)CC[C@H]2[C@@H]3CC=C4c5sc(Nc6cccc(C)n6)nc5CC[C@]4(C)[C@H]3CC[C@@]21C	Yes
N#Cc1c(-c2cccs2)cc(-c2cnccn2)nc1SCC(=O)NNC(=S)Nc1ccc(F)cc1	No

Incoming: Tell me the assay call for `CCOC(=O)Nc1ccc(-c2nc(-c3cccc(O)c3)c(-c3ccnc(Br)c3)[nH]2)cc1` please.
Outgoing: Yes

Incoming: Test call for this compound, please: `CC1CCN(S(=O)(=O)c2ncsc2-c2ccccc2)CC1`
Outgoing: No

Incoming: Tell me the assay call for `O=c1[nH]c(CNc2ccc(NCc3c(-c4ccccc4)no[n+]3[O-])cc2)nc2c1cnn2-c1ccccc1` please.
Outgoing: No

Incoming: Recorded test outcome, item `O=C1c2c(c3c4cccnc4[nH]c3c3ccc4ccccc4c23)C(=O)N1CCN1CCOCC1`
Outgoing: No

Incoming: Write down the call the test reported for this compound. Item: `C=CCn1c(SCC(=O)Nc2cccc(C(=O)/C=C/c3cc(OC)c(OC)c(OC)c3)c2)nc2ccccc2c1=O`
Outgoing: No

Incoming: For `Cc1ccc(-c2cc(-c3cccc4ccccc34)n3c(n2)nc2ccccc23)cc1` , which call appears in the assay record?
Outgoing: No

Incoming: Could you check what this test reported for `CC(=O)NC(C)(C)C(=O)N1CCC[C@H]1C(=O)NC(C)(C)C(=O)N[C@@H](C)C(=O)NC(C)(C)C(=O)NC(C)(C)C(=O)N[C@@H](CCC(N)=O)C(=O)NC(C)(C)C(=O)N[C@H](C(=O)NC(C)(C)C(=O)NCC(=O)N[C@@H](CC(C)C)C(=O)NC(C)(C)C(=O)N1CCC[C@H]1C(=O)N[C@H](C(=O)NC(C)(C)C(=O)NC(C)(C)C(=O)N[C@@H](CCC(N)=O)C(=O)N[C@@H](CCC(N)=O)C(=O)N[C@H](CO)Cc1ccccc1)C(C)C)C(C)C` ?
Outgoing: No

Incoming: So what was the verdict on `COc1ccc(-c2ccc3c4c(cccc24)C(=O)N(N2C(=O)c4cccc5cccc(c45)C2=O)C3=O)cc1` in this test?
Outgoing: No

Incoming: GET /call?item= `COCCOc1ccc(-c2csc(NC(=O)CN3CCN(CCO)CC3)n2)cc1NS(=O)(=O)c1cccc2c(N(C)C)cccc12` returns the recorded outcome of this test.
Outgoing: No
